assay system: T1, PC2, P16519
T1 chain: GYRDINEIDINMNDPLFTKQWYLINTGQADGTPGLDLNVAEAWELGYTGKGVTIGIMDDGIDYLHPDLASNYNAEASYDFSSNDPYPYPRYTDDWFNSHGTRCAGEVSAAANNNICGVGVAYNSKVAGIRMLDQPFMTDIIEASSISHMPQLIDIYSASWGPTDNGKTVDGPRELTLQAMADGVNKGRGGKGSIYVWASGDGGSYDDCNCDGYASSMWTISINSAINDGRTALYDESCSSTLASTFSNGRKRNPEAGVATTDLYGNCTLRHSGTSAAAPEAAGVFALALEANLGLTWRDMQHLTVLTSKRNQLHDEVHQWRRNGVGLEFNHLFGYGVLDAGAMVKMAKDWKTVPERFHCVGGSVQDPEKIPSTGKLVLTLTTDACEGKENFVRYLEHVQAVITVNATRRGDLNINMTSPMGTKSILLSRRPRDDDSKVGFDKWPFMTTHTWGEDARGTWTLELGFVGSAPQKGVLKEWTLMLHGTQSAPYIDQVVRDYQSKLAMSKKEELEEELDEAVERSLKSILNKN
condition notes: modification not given
recorded metric: Ki
The number alone won't do; follow it with the unit.

In: Item under review: Ac-LLRVKR-NH2 [Ac-LLRVKR-NH2] . Reported Ki?
Out: 1000 nM
